cAMP EC50 values, listed per item
# assaySystem: T1, human parathyroid hormone receptor 1, wild-type (hPTHR-1) (human, UniProt Q03431 27-593)
# T1 sequence (looked up): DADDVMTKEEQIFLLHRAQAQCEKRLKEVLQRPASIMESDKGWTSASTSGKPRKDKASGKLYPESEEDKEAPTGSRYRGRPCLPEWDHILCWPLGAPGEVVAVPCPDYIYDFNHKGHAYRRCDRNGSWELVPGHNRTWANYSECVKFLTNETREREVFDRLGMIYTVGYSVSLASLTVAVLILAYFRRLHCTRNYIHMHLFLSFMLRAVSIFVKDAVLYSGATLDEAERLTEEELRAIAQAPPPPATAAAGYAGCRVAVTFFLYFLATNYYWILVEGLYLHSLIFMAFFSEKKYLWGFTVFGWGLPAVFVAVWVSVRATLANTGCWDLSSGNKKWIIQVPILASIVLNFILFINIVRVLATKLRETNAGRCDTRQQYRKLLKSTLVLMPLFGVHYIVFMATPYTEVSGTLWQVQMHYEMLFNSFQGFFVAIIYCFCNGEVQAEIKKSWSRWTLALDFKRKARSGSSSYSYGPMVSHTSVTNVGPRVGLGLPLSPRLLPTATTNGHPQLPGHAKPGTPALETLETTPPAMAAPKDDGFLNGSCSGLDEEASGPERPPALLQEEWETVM
# assaySummary: cell-based or functional assay
No end group written: not given here.
Note: unit nM is implicit; provide only the numeric part.

Short answer for SVSEIQLMHNLGKHLNSMERVEWLRKKLQDVQNF-NH2 (not fully specified (residue 32); printed as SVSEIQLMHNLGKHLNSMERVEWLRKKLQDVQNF-NH2; also: three β3 residues, positions not given here in text, also called α/β-peptide B3) [B3] : cAMP EC50 was 0.11

Short answer for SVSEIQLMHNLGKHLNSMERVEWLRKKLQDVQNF-NH2 (not fully specified (residues 20, 24, 28, 32); printed as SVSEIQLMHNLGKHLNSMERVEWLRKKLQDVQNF-NH2; also: five β3 residues, positions not given here in text, also called α/β-peptide B5) [B5] : cAMP EC50 was 0.11

Short answer for SVSEIQLMHNLGKHLNSMERVEWLRKKLQDVHNF (C-terminal amide; three β3 residues with native side chains, αααβ pattern; bold marks lost in text (inferred 23, 27, 31)) [A3] : cAMP EC50 was 0.29
